# Tested on: HCT-116 colon
# Test Details: NCI tumour cell line growth inhibition, 48 h
Readout: log10 of TGI (log10 of the value in µM)
Response schema: value (number) is log10 of TGI in units of µM.

The examples below pair each entry with its known result.
Ask: Consider the compound shown here: `CC(C)(C)OC(=O)N1C(C2=COc3ccccc3O2)=COc2ccccc21` What is its recorded log10 of TGI?
Reply: 1.86

Ask: Consider the compound shown here: CCC(=O)C1=C(OC(C)=O)C2Cc3c(n(C)c4ccccc34)C(C1)N2C (stereo not given) What is its recorded log10 of TGI?
Reply: 1.93

Ask: Consider the compound shown here: `Cc1ccc(/C=C(\C#N)n2nnc3cc(Cl)c(Cl)cc32)cc1` What is its recorded log10 of TGI?
Reply: 0.48

Ask: Consider the compound shown here: `O=C1C=C2S[C@H]3C[C@]2(C=C1Br)c1c(c(O)c2c4c1=NCCC=4C=N2)N3` What is its recorded log10 of TGI?
Reply: -0.47

Ask: Consider the compound shown here: `N=C(N)n1ncc(Cl)c(Cl)c1=O` What is its recorded log10 of TGI?
Reply: 0.52

For each of the compounds below, note its log10 of TGI.
1. CN(C)CCNC(=O)c1cccc2nc3ccc4ccccc4c3nc12
2. N#CS/C(C(Cl)=C(Cl)Cl)=C(/Cl)[N+](=O)[O-]
3. O=[N+]([O-])c1cc2n[nH]nc2c2nonc12
4. Cc1csc2c(P(=O)(OC(C)C)OC(C)C)c(-c3ccccc3)cn12
5. O=C(CCCn1c2c(sc3ncccc32)c(=O)n2nnc(-c3ccccc3)c12)NCCc1cnc[nH]1
6. N/C(=N\O)c1ncc(-c2ccc(C(F)(F)F)cc2)c(NC2CCCCCC2)n1
7. Nc1nc(N)c2cc(CNc3ccc(Cl)c(Cl)c3)ccc2n1

Reply:
[-0.69, 0.48, 1.64, 1.44, 1.00, 1.08, 0.12]
